SYSTEM: TYK2 (Homo sapiens, UniProt P29597)
Construct: Degradation of TYK2 in cells was quantitatively measured using Meso Scale Discovery (MSD) technology; endogenous in cells; host or cells: OCI-LY10
Sequence (P29597 whole entry): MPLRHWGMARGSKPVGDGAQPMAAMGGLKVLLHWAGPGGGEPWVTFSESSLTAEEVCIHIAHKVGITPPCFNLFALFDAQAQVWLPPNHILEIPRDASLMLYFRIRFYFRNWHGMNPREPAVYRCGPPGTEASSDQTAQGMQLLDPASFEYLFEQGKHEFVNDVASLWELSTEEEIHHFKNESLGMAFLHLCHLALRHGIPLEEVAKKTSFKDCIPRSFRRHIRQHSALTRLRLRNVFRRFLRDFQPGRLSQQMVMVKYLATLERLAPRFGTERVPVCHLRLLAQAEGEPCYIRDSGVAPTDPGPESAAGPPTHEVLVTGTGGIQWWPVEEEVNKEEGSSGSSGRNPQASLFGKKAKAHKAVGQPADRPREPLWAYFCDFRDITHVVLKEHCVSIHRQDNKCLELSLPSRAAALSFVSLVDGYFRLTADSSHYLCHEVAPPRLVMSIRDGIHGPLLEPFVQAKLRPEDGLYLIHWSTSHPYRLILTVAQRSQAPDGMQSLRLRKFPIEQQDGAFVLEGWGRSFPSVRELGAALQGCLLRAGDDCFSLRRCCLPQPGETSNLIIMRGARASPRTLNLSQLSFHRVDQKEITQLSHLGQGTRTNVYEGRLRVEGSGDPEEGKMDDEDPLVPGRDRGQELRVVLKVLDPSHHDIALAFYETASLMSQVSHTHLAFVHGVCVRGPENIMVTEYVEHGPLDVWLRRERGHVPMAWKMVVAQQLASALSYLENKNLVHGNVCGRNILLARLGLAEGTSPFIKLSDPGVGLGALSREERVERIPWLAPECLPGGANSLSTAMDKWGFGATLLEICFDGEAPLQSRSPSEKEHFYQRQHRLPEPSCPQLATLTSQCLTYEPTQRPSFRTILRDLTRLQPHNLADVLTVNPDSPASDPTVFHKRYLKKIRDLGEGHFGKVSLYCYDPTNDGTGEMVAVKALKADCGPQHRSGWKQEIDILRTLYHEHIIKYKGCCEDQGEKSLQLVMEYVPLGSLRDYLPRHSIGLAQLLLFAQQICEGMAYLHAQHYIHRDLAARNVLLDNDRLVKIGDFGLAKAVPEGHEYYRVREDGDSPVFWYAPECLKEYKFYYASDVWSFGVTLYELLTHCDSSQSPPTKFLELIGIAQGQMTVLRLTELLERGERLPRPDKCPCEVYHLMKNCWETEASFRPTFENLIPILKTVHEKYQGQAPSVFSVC
TEST DETAILS: TYK2 MSD degradation in OCI-LY10 cells
Type: cell-based
SETUP CONDITIONS: OCI-LY10 cells, 4 to 24 hours incubation, read-out: TYK2 MSD OCI-LY10 Rel-DC50
DC50 by entry:

Completed entries (count: 4):
- CNc1cc(N2CCc3c(CN4CC[C@@H](N5CCC6(CCN(C(=O)c7ccc(Cl)c(N8CCC(=O)NC8=O)c7)CC6)CC5)C(F)(F)C4)cccc32)nn2c(C(=O)N[C@@H]3C[C@@H]3F)cnc12 [I-714]: < 1 nM
- CNc1cc(N2CCc3c(CN4CCC(N5CCC(C6CCN(C(=O)c7ccc(Cl)c(N8CCC(=O)NC8=O)c7)CC6)CC5)C(F)(F)C4)cccc32)nn2c(C(=O)N[C@@H]3C[C@@H]3F)cnc12 (some centres unmarked) [I-780]: < 1 nM
- CNc1cc(N2CCc3c(CN4CCC(N5CCC6(CCN(C(=O)c7cc(C)c(Cl)c(N8CCC(=O)NC8=O)c7)CC6)CC5)C(F)(F)C4)cccc32)nc2c(C(=O)N[C@@H]3C[C@@H]3F)cnn12 (some centres unmarked) [I-775]: < 1 nM
- CNc1cc(N2CCc3c(CC4CCN(C5CCC6(CCN(C(=O)c7ccc(Cl)c(N8CCC(=O)NC8=O)c7)CC6)OC5)CC4)cccc32)nn2c(C(=O)N[C@@H]3C[C@@H]3F)cnc12 (some centres unmarked) [I-685]: < 10 nM

Attention now turns to another entry.
If you can, please state the reported DC50 value of CNc1cc(-c2cn(CC3CCN(CC4CCN(C(=O)c5ccc(Cl)c(N6CCC(=O)NC6=O)c5)CC4)CC3)c3ccccc23)nn2c(C(=O)N[C@@H]3C[C@@H]3F)cnc12 [I-773] .
> 100 nM

---

DC50 by entry:
SYSTEM: TYK2 (Homo sapiens, UniProt P29597)
Construct: Degradation of TYK2 in cells was quantitatively measured using Meso Scale Discovery (MSD) technology; endogenous in cells; host or cells: OCI-LY10
TEST DETAILS: TYK2 MSD degradation in OCI-LY10 cells
Format: cell-based
SETUP CONDITIONS: TYK2 degradation in OCI-LY10 cells, 4 to 24 hours incubation, read-out: TYK2 MSD OCI-LY10 Rel-DC50

Give the reported DC50 for CNc1cc(N2CCc3c(-c4ccc(CN5CC6(CCN(C(=O)c7ccc(C)c(N8CCC(=O)NC8=O)c7)CC6(F)F)C5)cn4)cc(F)cc32)nn2c(C(=O)NC3CC3F)cnc12 (centres unmarked) (system: TYK2 (Homo sapiens, UniProt P29597)).
< 1 nM

Give the reported DC50 for CNc1cc(N2CCc3c(-c4ncc(CN5CC6(CCN(C(=O)c7ccc(OC)c(N8CCC(=O)NC8=O)c7)CC6(F)F)C5)cc4F)cccc32)nn2c(C(=O)N[C@@H]3C[C@@H]3F)cnc12 (system: TYK2 (Homo sapiens, UniProt P29597)).
< 1 nM

Give the reported DC50 for CNc1cc(N2CCc3c(-c4ccc(CN5CC6(CCN(C(=O)c7cc(C)c(Cl)c(N8CCC(=O)NC8=O)c7)CC6(F)F)C5)cn4)cccc32)nn2c(C(=O)NC(C)c3ncco3)cnc12 (centres unmarked) (system: TYK2 (Homo sapiens, UniProt P29597)).
< 10 nM

Give the reported DC50 for CNc1cc(N2CCc3c(-c4ccc(CC5CN(C6CCN(C7CCN(c8ccc9c(c8)n(C)c(=O)n9C8CCC(=O)NC8=O)CC7)CC6(F)F)C5)cn4)cccc32)nn2c(C(=O)N[C@@H]3C[C@@H]3F)cnc12 (some centres unmarked) (system: TYK2 (Homo sapiens, UniProt P29597)).
< 1 nM

Give the reported DC50 for CNc1cc(N2CCc3c(N4CCN(C5CN(C6CCN(C(=O)c7ccc(Cl)c(N8CCC(=O)NC8=O)c7)CC6)C5)CC4)cccc32)nn2c(C(=O)N[C@@H]3C[C@@H]3F)cnc12 (system: TYK2 (Homo sapiens, UniProt P29597)).
> 100 nM

Give the reported DC50 for CNc1cc(N2CCc3c(-c4ncc(CN5CC6(CCN(C(=O)c7ccc(C)c(N8CCC(=O)NC8=O)c7)CC6(F)F)C5)cc4F)cccc32)nn2c(C(=O)N[C@@H]3C[C@@H]3F)cnc12 (system: TYK2 (Homo sapiens, UniProt P29597)).
< 1 nM

Give the reported DC50 for CNc1cc(N2CCc3c(CN4CCC(N5CCC(C6CCN(C(=O)c7ccc(Cl)c(N8CCC(=O)NC8=O)c7)CC6)CC5)C(F)(F)C4)cccc32)nn2c(C(=O)N[C@@H]3CC[C@H]3OC)cnc12 (some centres unmarked) (system: TYK2 (Homo sapiens, UniProt P29597)).
< 1 nM

---

SYSTEM: TYK2 (Homo sapiens, UniProt P29597)
Construct: Degradation of TYK2 in cells was quantitatively measured using Meso Scale Discovery (MSD) technology; endogenous in cells; host or cells: OCI-LY10
TEST DETAILS: TYK2 MSD degradation in OCI-LY10 cells
Assay type: cell-based
SETUP CONDITIONS: TYK2 degradation in OCI-LY10 cells, 4 to 24 hours incubation
MEASURED ATTRIBUTE: TYK2 MSD OCI-LY10 Dmax %

* CNc1cc(N2CCc3c(CN4CC[C@@H](N5CCC6(CCN(C(=O)c7cc(Cl)c(Cl)c(N8CCC(=O)NC8=O)c7)CC6)CC5)C(F)(F)C4)cccc32)nn2c(C(=O)N[C@@H]3CC[C@H]3OC)cnc12 | A (A (>90%))
* CNc1cc(N2CCc3c(C#CCN4CCN(C5CCN(C(=O)c6ccc(Cl)c(N7CCC(=O)NC7=O)c6)CC5(F)F)CC4)cccc32)nn2c(C(=O)NC3CC3F)cnc12 (stereo not drawn) | A (A (>90%))
* CNc1cc(N2CCc3c(-c4ncc(CN5CC6(CCN(C(=O)c7cc(F)c(Cl)c(N8CCC(=O)NC8=O)c7)CC6(F)F)C5)cc4F)cccc32)nn2c(C(=O)N[C@@H]3C[C@@H]3F)cnc12 | A (A (>90%))

---

SYSTEM: TYK2 (Homo sapiens, UniProt P29597)
Construct: Degradation of TYK2 in cells was quantitatively measured using Meso Scale Discovery (MSD) technology; endogenous in cells; host or cells: OCI-LY10
TEST DETAILS: TYK2 MSD degradation in OCI-LY10 cells
Assay type: cell-based
SETUP CONDITIONS: TYK2 degradation in OCI-LY10 cells, 4 to 24 hours incubation
MEASURED ATTRIBUTE: TYK2 MSD OCI-LY10 Dmax %

* CNc1cc(N2CCc3c(-c4ccc(CN5CC6(CCN(C(=O)c7cc(C)c(Cl)c(N8CCC(=O)NC8=O)c7)CC6(F)F)C5)cn4)cccc32)nn2c(C(=O)NC(C)c3ncco3)cnc12 (centres unmarked) | B (B (90 to >75%))
* CNc1cc(N2CCc3c(-c4ccc(N5CC6(CCN(C(=O)c7ccc(N8CCC(=O)NC8=O)c(Cl)c7)CC6)C5)cn4)cccc32)nn2c(C(=O)N[C@@H]3C[C@@H]3F)cnc12 | B (B (90 to >75%))
* CNc1cc(N2CCc3c(-c4ccc(N5CCN(C(=O)c6ccc(Cl)c(N7CCC(=O)NC7=O)c6)CC5)cn4)cccc32)nn2c(C(=O)N[C@@H]3C[C@@H]3F)cnc12 | D (D (<50%))
* CNc1cc(N2CCc3c(-c4ccc(CN5CCC6(CCC(COc7ccc(N8CCC(=O)NC8=O)c(Cl)c7)CC6)CC5)cn4)cccc32)nn2c(C(=O)N[C@@H]3C[C@@H]3F)cnc12 | D (D (<50%))

---

SYSTEM: TYK2 (Homo sapiens)
Construct: Degradation of TYK2 in cells was quantitatively measured using Meso Scale Discovery (MSD) technology; endogenous in cells; host or cells: OCI-LY10
TEST DETAILS: TYK2 MSD degradation in OCI-LY10 cells
Assay type: cell-based
SETUP CONDITIONS: OCI-LY10 cells, 4 to 24 hours incubation
MEASURED ATTRIBUTE: TYK2 MSD OCI-LY10 Dmax %

Completed entries (count: 4):
• CNc1cc(-c2cn(CC3CCN(C4CCN(C(=O)c5ccc(Cl)c(N6CCC(=O)NC6=O)c5)CC4)CC3)c3ccccc23)nn2c(C(=O)N[C@@H]3C[C@@H]3F)cnc12 = D (D (<50%))
• CNc1cc(N2CCc3c(-c4ccc(CN5CC6(CCN(C(=O)c7cc(Cl)c(C)c(N8CCC(=O)NC8=O)c7)CC6(F)F)C5)cn4)cccc32)nn2c(C(=O)N[C@@H]3C[C@@H]3F)cnc12 = A (A (>90%))
• CNc1cc(N2CCc3c2cccc3C23CC(CN4CCC(N5CC(N6CCN(c7cccc8c7n(C)c(=O)n8C7CCC(=O)NC7=O)CC6)C5)C(F)(F)C4)(C2)C3)nn2c(C(=O)N[C@@H]3C[C@@H]3F)cnc12 (some centres unmarked) = B (B (90 to >75%))
• CNc1cc(N2CCc3c(-c4ccc(CN5CCC6(CCN(C(=O)c7cc(C)c(Cl)c(N8CCC(=O)NC8=O)c7)CC6)C(F)(F)C5)cn4)cccc32)nn2c(C(=O)N[C@@H]3C[C@@H]3F)cnc12 = B (B (90 to >75%))

Attention now turns to another entry.
If you can, please state the reported TYK2 MSD OCI-LY10 Dmax % value of CNc1cc(-c2cn(C3CCN(CCC4CCN(C(=O)c5ccc(Cl)c(N6CCC(=O)NC6=O)c5)CC4)CC3)c3ccccc23)nn2c(C(=O)N[C@@H]3C[C@@H]3F)cnc12 .
D (D (<50%))

These measurements were taken from patent US20260125400A1.
